Ref: PubChem BioAssay AID1046

Biological target: Prothrombin (Homo sapiens) (UniProt P00734)
Test: human alpha-thrombin inhibitors, primary screen, counter-screen for coagulation protease inhibitor project, biochemical, 1536-well, fluorogenic AMC substrate (AID 1046)
Conditions: Boc-VPR-AMC fluorogenic substrate cleavage, at 5 µM
Among all 220,000 compounds or so, about 560 (0.25%) were called active.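 How the source made its calls: active means inhibition at or above 40%; inactive means inhibition below 40%.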 Many of the other results were omitted from the sample, so actives are more common in it than they were.
Could you please pick one outcome from this set? active, inactive

Before answering, review these 5 worked examples.
{"molecule": "COc1ccc(C(=O)Nc2ccc(F)cc2F)cc1", "assignedLabel": "inactive"}
{"molecule": "CCOC(=O)C1CCN(c2c(Nc3cc(C)cc(C)c3)c(=O)c2=O)CC1", "assignedLabel": "inactive"}
{"molecule": "Cc1nc(SCC(=O)N2CCc3ccccc3C2)c2c(C)c(C)sc2n1", "assignedLabel": "active"}
{"molecule": "COC(=O)c1ccc(-c2noc(CN(Cc3ccccn3)CC3CCCO3)n2)cc1 (stereo not given)", "assignedLabel": "inactive"}
{"molecule": "CC1CN(S(=O)(=O)c2ccc(C(=O)NN3CCN(C)CC3)cc2)CC(C)O1 (stereo not given)", "assignedLabel": "inactive"}

INPUT: I'd appreciate the recorded outcome for C=C(C)COc1ccc(-c2nc(N)ncc2-c2ccccc2OC)c(O)c1 from this test.
OUTPUT: inactive

INPUT: Test call, this molecule: CCC(C(=O)Nc1ccc(C(C)C)cc1)c1ccccc1 (stereo not given)
OUTPUT: inactive

INPUT: I'd appreciate the recorded outcome for CC1CC(=O)Nc2ccccc2N1S(=O)(=O)c1cccs1 (stereo not given) from this test.
OUTPUT: inactive

INPUT: # fetch the recorded call for Cc1ccccc1Cn1nc(C)c(NC(=O)C(F)(F)F)c1C here
OUTPUT: inactive

INPUT: Please indicate how the test categorized COc1ccc(CN2CCC(c3nc4ccc(Cl)cc4[nH]3)CC2)cc1 .
OUTPUT: inactive

* * *

Molecular target: Prothrombin (Homo sapiens) (UniProt P00734)
Assay: human alpha-thrombin inhibitors, primary screen, counter-screen for coagulation protease inhibitor project, biochemical, 1536-well, fluorogenic AMC substrate (AID 1046)
Conditions: Boc-VPR-AMC fluorogenic substrate cleavage, at 5 µM
Among all 220,000 compounds or so, about 560 (0.25%) were called active.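 The calls were made as follows: active = inhibition at or above 40%; inactive = inhibition below 40%.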 The entries come from a sample that favours actives as a whole.
Assign a class; possible classes are active, inactive

{"molecule": "CCCC(=O)OCC(=O)Nc1cc(Cl)ccc1[N+](=O)[O-]", "assignedLabel": "inactive"}
{"molecule": "CC1=NCCN1S(=O)(=O)c1cccc([N+](=O)[O-])c1", "assignedLabel": "inactive"}
{"molecule": "COC(=O)c1cc2c(N)c(C(=O)c3ccc(Cl)cc3)sc2nc1C(OC)OC", "assignedLabel": "inactive"}
{"molecule": "CCOC(=O)C1(C)NC(c2ccco2)C2C(=O)N(c3ccccc3)C(=O)C21 (stereo not given)", "assignedLabel": "inactive"}
{"molecule": "CCSc1nc(C)nc2c1oc1ccccc12", "assignedLabel": "inactive"}
{"molecule": "OCCC#Cc1ccc(CN2CCN(Cc3ccsc3)C(CCO)C2)cc1 (stereo not given)", "assignedLabel": "inactive"}
{"molecule": "CSc1nc(-c2ccco2)nn1C(=O)c1ccccc1Cl", "assignedLabel": "inactive"}
{"molecule": "O=C(Nc1n[nH]c(C(F)(F)F)n1)c1cccs1", "assignedLabel": "inactive"}
{"molecule": "CCN(CC)C(=O)CC1(c2ccccc2OC)CCOC(C(C)C)C1 (stereo not given)", "assignedLabel": "inactive"}
{"molecule": "Cc1ccc(C)c2[nH]c(=O)c(CN(Cc3cccnc3)C(=S)NCc3ccco3)cc12", "assignedLabel": "inactive"}

INPUT: Hi, do you know how CCOc1cc(NC(=S)NCCCN(C)C)c(OCC)cc1NC(=O)C1CC1 came out in this test?
OUTPUT: inactive

INPUT: // outcome(item) with item = O=C(Nn1cnnc1)c1ccc([N+](=O)[O-])cc1
OUTPUT: inactive

INPUT: For this molecule, state the assay outcome: Cc1cc(C)cc(C(=O)NC2C(=O)N3C(C(=O)O)=C(CSc4nnc(C)s4)CSC23)c1 (stereo not given)
OUTPUT: inactive

INPUT: Kindly provide the recorded test outcome for the following molecule: Cc1nc(SCC(=O)N2CC(=O)Nc3ccccc32)c2c(C)c(C)sc2n1
OUTPUT: inactive

INPUT: // outcome(item) with item = Cc1ccc(S(=O)(=O)/N=C(/NC(=S)Nc2c(C)n(C)n(-c3ccccc3)c2=O)c2ccccc2)cc1
OUTPUT: inactive

INPUT: # fetch the recorded call for N/C(=N\OS(=O)(=O)c1cccc([N+](=O)[O-])c1)c1ccncc1 here
OUTPUT: inactive

INPUT: Given COC(=O)c1nc(NC(=O)c2ccc(F)cc2)n[nH]1 , state the outcome it received in this test.
OUTPUT: active

INPUT: Which outcome did this test record for the molecule O=C(Nc1cc2c3c(c1)C1CCCC1CN3CC1CCCC21)c1ccc([N+](=O)[O-])cc1 (stereo not given) ?
OUTPUT: active

INPUT: Would you mind telling me which call this test gave COc1ccc(N2CCN(C(=O)CNC(=O)c3ccc(C(C)(C)C)cc3)CC2)cc1 ?
OUTPUT: inactive

INPUT: Check the results log: what was the call for Cc1ccc(C)n1NC(=O)c1ccc([N+](=O)[O-])cc1 ?
OUTPUT: inactive
